The measurements presented in this section are drawn from paper PMC12703733.

Type: cell-based
Settings: Cell viability (%)
Bridge positions count the residues as written; N and C are the ends. Square brackets hold non-standard residues; d marks the D form. Peptide text beside a SMILES is read from it.
Measure: viability at 12.5 µM

Identify measured viability at 12.5 µM associated with CC[C@H](C)[C@H](NC(=O)[C@H](CCCNC(=N)N)NC(=O)[C@H]1CCC(=O)NCCCC[C@H](NC(=O)[C@H](Cc2ccccc2)NC(=O)[C@H](Cc2c[nH]c3ccccc23)NC(=O)[C@@H]2CCCN2C(=O)[C@@H](NC(=O)[C@@H](N)Cc2ccccc2)C(C)C)C(=O)N[C@@H](CCCCN)C(=O)N[C@@H](Cc2ccccc2)C(=O)N[C@H](CC(C)C)C(=O)N1)C(=O)N[C@@H](CC(C)C)C(N)=O [Peptide 2, FVPWF[KKFle]RIL] (H-FVPWFKKF[dL][dE]RIL-NH2; lactam 6-10)
100%
